molecular target: Angiotensin-converting enzyme (Oryctolagus cuniculus, UniProt P12822); experiment: Binding affinity against Angiotensin I converting enzyme
Sequence (P12822 whole entry): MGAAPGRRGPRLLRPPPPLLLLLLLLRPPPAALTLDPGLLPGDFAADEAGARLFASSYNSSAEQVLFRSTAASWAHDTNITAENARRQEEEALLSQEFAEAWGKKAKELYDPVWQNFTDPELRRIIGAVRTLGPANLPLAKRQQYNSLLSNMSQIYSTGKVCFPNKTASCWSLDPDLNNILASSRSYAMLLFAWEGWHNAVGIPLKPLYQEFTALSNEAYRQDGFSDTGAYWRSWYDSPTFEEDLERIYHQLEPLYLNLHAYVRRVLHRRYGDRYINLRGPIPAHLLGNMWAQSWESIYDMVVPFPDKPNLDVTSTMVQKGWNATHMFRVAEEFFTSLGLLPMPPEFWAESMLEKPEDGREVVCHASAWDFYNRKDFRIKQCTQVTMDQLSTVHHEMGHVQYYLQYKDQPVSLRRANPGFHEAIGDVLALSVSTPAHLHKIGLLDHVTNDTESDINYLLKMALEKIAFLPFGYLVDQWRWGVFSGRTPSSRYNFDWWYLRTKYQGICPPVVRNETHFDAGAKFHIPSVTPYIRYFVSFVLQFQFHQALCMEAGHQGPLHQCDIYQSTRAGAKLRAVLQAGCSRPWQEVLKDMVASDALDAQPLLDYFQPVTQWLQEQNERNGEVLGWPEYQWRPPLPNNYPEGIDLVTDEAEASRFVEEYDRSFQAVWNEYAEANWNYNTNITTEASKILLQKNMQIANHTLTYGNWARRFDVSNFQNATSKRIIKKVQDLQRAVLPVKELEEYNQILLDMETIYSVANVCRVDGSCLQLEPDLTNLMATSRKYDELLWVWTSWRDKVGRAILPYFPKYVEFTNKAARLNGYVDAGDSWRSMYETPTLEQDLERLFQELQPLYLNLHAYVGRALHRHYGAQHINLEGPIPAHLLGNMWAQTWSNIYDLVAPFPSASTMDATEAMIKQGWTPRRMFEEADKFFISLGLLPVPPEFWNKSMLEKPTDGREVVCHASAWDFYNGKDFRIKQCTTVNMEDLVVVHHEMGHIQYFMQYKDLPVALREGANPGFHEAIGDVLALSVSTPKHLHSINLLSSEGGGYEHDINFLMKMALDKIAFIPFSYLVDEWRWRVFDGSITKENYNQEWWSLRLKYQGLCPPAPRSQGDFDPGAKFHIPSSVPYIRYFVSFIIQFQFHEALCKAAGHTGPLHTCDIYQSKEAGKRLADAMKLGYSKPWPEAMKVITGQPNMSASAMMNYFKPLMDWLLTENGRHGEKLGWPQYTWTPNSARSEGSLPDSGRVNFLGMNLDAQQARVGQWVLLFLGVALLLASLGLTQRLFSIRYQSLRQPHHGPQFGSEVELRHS
Reported Metric: Ki (nM)
Answer in nM, number only, no unit symbol.

Lookup: Record request: Ki value, item C[C@H](NP(=O)(O)Oc1ccc([N+](=O)[O-])cc1)C(=O)N1CCC[C@H]1C(=O)O
Found: 18
